All values here come from PubChem BioAssay (NCI).

# maps each entry to its growth
# System: RPMI-8226 leukemia
# ASSAY PROTOCOL: NCI-60 one-dose screen, 48 h (100 = growth as untreated, 0 = no growth, -100 = all killed)
# ASSAY CONDITIONS: 10 µM unless noted
About 83,000 compounds went through this panel and 20% of them were active in at least one assay; those are over-represented in the sample as a whole.
ATTRIBUTE MEASURED: growth (%)

| COMPOUND | TESTED SYSTEM | RESULT |
| --- | --- | --- |
| Cc1nc2c(=O)nc3s/c(=C\c4ccco4)c(=O)n3c2nc1C | RPMI-8226 leukemia | 116 |
| COc1ccc2c(c1)c(/C(O)=C1\COC(=O)C1=O)cn2Cc1ccc(F)cc1 | RPMI-8226 leukemia | 72.1 |
| O=C(/C=C/c1ccc(Cl)cc1)c1cccc(OCCCOc2cccc(C(=O)/C=C/c3ccc(Cl)cc3)c2)c1 | RPMI-8226 leukemia | -8.57 |
| CCN1C(=O)N(CC)C2C1NN=c1s/c(=C\c3ccc[nH]3)c(=O)n12 (stereo not given) | RPMI-8226 leukemia | 15.5 |
| Cc1ccc(-c2nc(/C=C3/C(=O)Nc4ccc(F)cc43)c3ccccn23)cc1 | RPMI-8226 leukemia | 89.7 |

---

# Test system: COLO 205 colon
# ASSAY PROTOCOL: NCI-60 one-dose screen, 48 h (100 = growth as untreated, 0 = no growth, -100 = all killed)
# ASSAY CONDITIONS: 10 µM unless noted
The panel holds about 83,000 compounds, 20% with a hit somewhere; the sample as a whole holds those more often.
So basically: is growth under 50%? Then true. Not under? Then false.

| COMPOUND | CAT |
| --- | --- |
| Cc1nc2sc(C(=O)Nc3cccc(Br)c3C)c(N)c2cc1C(O)c1ccccc1 (centres undefined) | true |
| COc1ccc(/C=C/C(c2cc(OC)c(OC)c(OC)c2)n2ccnc2)cc1O (centres undefined) | false |
| CC(C)(C)n1cc(-c2ccnc(NCCCNS(=O)(=O)c3cccc4ccccc34)c2)c(-c2cccc(F)c2)n1 | false |
| COc1cccc(NCc2nnc(Nc3ccc(Cl)cc3)c3ccccc23)c1 | true |
| N=c1c(S(=O)(=O)c2ccccc2)cc2c(=O)n3ccccc3nc2n1CC1CCCO1 (centres undefined) | false |
| CC1(C)CC[C@]2(CO)CC[C@]3(C)[C@H](CC[C@@H]4[C@@]5(C)CCCNC(C)(C)[C@@H]5CC[C@]43C)[C@H]2[C@H]1O | true |
| COc1cccc(/C=N/NC(=O)c2ccccc2N2CCCC2)c1O | false |
| COc1cc(OC)cc(-c2ccc(-c3ccc(C(=N)N)o3)o2)c1 | true |
| N=C(N)c1ccc(-c2ccc(-c3cc(Cl)cc(Cl)c3)s2)nc1 | true |

---

# Tested on: RXF 393 renal
# ASSAY PROTOCOL: NCI-60 one-dose screen, 48 h (100 = growth as untreated, 0 = no growth, -100 = all killed)
# ASSAY CONDITIONS: 10 µM unless noted
About 83,000 compounds went through this panel and 20% of them were active in at least one assay; those are over-represented in the sample as a whole. Active and inactive are the calls of the source. Rule for the calls: active = growth percent below 10; inactive = the rest.
# maps each entry to its growth

| MOLECULE | growth |
| --- | --- |
| CNCc1cccc2c1OCCOCCOCCNS(=O)(=O)c1ccc(cc1)-c1cnc(N)c(n1)C(=O)N2 | -11.5% (active) |
| Cc1cccc(Oc2ccc(Nc3ncnc4ccc(NC(=O)CN5CCN(C)CC5)cc34)cc2Cl)c1 | -65.6% (active) |
| COC(=O)CC[C@@H]1O[C@@H](c2ccc(F)cc2)[C@@H](O)[C@H]1O | 112% (inactive) |
| CN(C)CCCC1(c2ccc(F)cc2)OCc2cc(-c3ccc4cc[nH]c4c3)ccc21 (stereo not given) | 45.8% (inactive) |
| C#CC#CC#CC#CC#CC#CC#CC#CCC1OC[C@H](COC(=O)O[C@@H](C(=O)O[C@H]2C[C@@]3(O)[C@@H](OC(=O)c4ccccc4)[C@@H]4[C@]5(OC(C)=O)CO[C@@H]5C[C@H](O)[C@@]4(C)C(=O)[C@H](OC(C)=O)C(=C2C)C3(C)C)[C@@H](NC(=O)c2ccccc2)c2ccccc2)O1 (stereo not given in full) | -2.06% (active) |
| CC1=C(C(=O)Nc2ccccc2)C(c2ccc3c(c2)OCO3)NC(=S)N1 (stereo not given) | 129% (inactive) |
| CN(CCC(=O)c1ccccc1)CCC(=O)c1ccccc1 | 97.9% (inactive) |
| CCO/C=N/C1=C(C#N)C(c2ccc(F)cc2)c2sc3c(F)cccc3c2O1 (stereo not given) | 33.3% (inactive) |
| CNC(=O)c1cc(Oc2cccc3nc(NC(=O)Nc4cc(C(F)(F)F)ccc4Cl)ccc23)ccn1 | 73.7% (inactive) |
| CN(C)CCN1C(=O)c2cccc3c(/C=C/CN4C(=O)c5cccc6cccc(c56)C4=O)ccc(c23)C1=O | 57% (inactive) |
| C=CCOC(=O)C1=C(C)N(CC)C(=O)NC1c1c(Cl)n(C)c2ccccc12 (stereo not given) | 108% (inactive) |
| Oc1c(CN2CCCC2)cc(CSCc2ccccc2)c2cccnc12 | 31.3% (inactive) |
| S=c1nc2oc(-c3ccccc3)c(-c3ccccc3)c2c(/N=C\c2ccco2)[nH]1 | 99.3% (inactive) |
| O=C(Nc1ccccc1O)c1ccc(CNC(=O)c2ccsc2Nc2ccnc(C(F)(F)F)c2)cc1 | 0.801% (active) |
| CC(=O)/C(=C/c1ccc([N+](=O)[O-])cc1)C(=O)c1ccccc1 | 74.2% (inactive) |
| O=C1/C(=C/c2ccccc2F)CN(C(=O)C(Cl)Cl)C/C1=C\c1ccccc1F | -76.3% (active) |
| CCCCNC(=O)Oc1ccc(/C(=C(/C)Cc2ccc(OC)cc2)c2ccc(OCCN3CCCCCC3)cc2)cc1 | 75.1% (inactive) |
| C[n+]1ccc(CCc2c[nH]c3ccccc23)cc1 | 118% (inactive) |
| Cc1ccc(N2C(=O)CCC2=O)cc1 | 121% (inactive) |
| O=C1/C(=C\c2ccccn2)c2ccccc2N1c1c(Cl)cccc1Cl | -35.2% (active) |
| [2H]C([2H])([2H])Oc1ccc(F)cc1/C=C/C(=O)/C=C(/C=C/c1cc(F)ccc1OC([2H])([2H])[2H])OB(F)F | 100% (inactive) |
| Cc1n[nH]c2ccc(Br)cc2c1=O | 103% (inactive) |
| CCCCCCCC/C=C\CCCCCCCCOc1ccc(CC(=O)NCC[N+]2(C)CCOCC2)cc1 | -38.6% (active) |
| CCN1CCN(C(=O)[C@]23CC[C@@H](C)[C@H](C)[C@@H]2C2=CC[C@@H]4[C@@]5(C)C/C(=C/c6cccnc6)C(=O)C(C)(C)[C@@H]5CC[C@@]4(C)[C@]2(C)CC3)CC1 | 3.08% (active) |
| CC1=C(CCC(C)NCc2ccc(OCCCN3CCCCC3)cc2)C(C)(C)CCC1 (stereo not given) | -89.1% (active) |
| COc1ccc(C(=O)Cn2c(C(=O)c3ccc(Cl)cc3)nc3ccccc32)cc1 | 14.2% (inactive) |
| CCNC(=O)Oc1ccc(/C(=C(/CC)Cc2ccccc2)c2ccc(OCCN3CCCC3)cc2)cc1 | 94.6% (inactive) |
| O=C(Oc1ccc(CCl)cc1)c1ccccc1 | -90.5% (active) |
| CC1C(/C=N/NC(N)=S)C(C#N)(C#N)C1(C#N)C#N (stereo not given) | 106% (inactive) |
| C=C1C(=O)O[C@H]2[C@H]1CC/C(COC(=O)c1cc3cc(Cl)ccc3[nH]1)=C\CC[C@@]1(C)O[C@@H]21 | -88.7% (active) |
| Cc1ccc(-c2csc(NC(=O)c3ccccc3CN3C(=O)c4ccccc4C3=O)n2)cc1 | 89.8% (inactive) |
| O=C1Nc2c(C(=O)O)cccc2/C1=N/c1n[nH]c(=S)s1 | 112% (inactive) |
| COc1ccc(/C=C/c2ccc3ccccc3n2)c(OC)c1 | 90.7% (inactive) |
| CO[C@H](C(=O)[C@@H](O)[C@@H](C)O)[C@@H]1Cc2cc3cc(O[C@H]4C[C@@H](O[C@H]5C[C@@H](O)[C@H](O)C(C)O5)[C@H](O)C(C)(O)O4)cc(O)c3c(O)c2C(=O)[C@H]1O[C@H]1C[C@@H](O[C@H]2C[C@@H](O[C@H]3C[C@@H](OC)[C@H](O)C(C)O3)[C@@H](O)C(C)O2)[C@H](O)C(C)O1 (stereo not given in full) | -35.1% (active) |
| O=C1/C=C/[C@@H](O)[C@@H]2C[C@@H](O)C[C@H]2/C=C/CCC[C@@H](O)CCO1 | 52.4% (inactive) |
